All values here come from patent US20180291110A1.

- Test system: T1, human transferrin receptor (recombinant, for surface plasmon resonance) (human, UniProt P02786 89-760)
- T1 construct: also called huTfR; human transferrin receptor-biotinylated
- T1 sequence (P02786 89-760 limits assumed): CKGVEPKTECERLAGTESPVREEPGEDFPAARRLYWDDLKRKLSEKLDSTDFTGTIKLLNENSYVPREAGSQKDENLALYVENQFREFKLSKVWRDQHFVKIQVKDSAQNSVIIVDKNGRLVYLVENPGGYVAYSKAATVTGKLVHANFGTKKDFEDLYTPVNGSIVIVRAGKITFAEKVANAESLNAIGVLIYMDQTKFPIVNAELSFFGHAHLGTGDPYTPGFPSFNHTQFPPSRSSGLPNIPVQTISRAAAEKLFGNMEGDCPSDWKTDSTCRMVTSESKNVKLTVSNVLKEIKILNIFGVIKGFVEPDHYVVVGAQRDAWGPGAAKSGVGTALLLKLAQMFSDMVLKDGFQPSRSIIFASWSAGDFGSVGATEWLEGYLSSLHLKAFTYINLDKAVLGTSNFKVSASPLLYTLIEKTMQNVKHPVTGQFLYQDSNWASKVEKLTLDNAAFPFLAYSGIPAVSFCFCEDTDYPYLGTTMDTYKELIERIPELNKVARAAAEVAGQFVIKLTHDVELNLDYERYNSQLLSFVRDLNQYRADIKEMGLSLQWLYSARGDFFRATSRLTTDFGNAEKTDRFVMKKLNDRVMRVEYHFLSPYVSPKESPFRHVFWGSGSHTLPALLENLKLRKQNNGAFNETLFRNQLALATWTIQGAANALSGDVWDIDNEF
- Protocol text: SPR
Experimental endpoint: koff (s⁻¹)
The reply should contain only the number, in s⁻¹.

Ask: Give the value of koff reported for the following: 4/94 SEQ ID NO 199 / SEQ ID NO 207 (antibody, V domains shown) VH: QVQLQESGPGLVKPSETLSLTCTVSGFNIKDTYIHWVIQRPGKGLEWIGRIDPANGDTKSDPSLQSRVTISADTSKNQASLKLSSVTAADTAVYYCVRDYLYPYYFDFWGQGTTVTVSS VL: KIVLTQSPGTLSLSPGERATLSCRASESVDTYVSWYQQKPGQAPRLLIYGASNRYTGVPDRFSGSGSGTDFTLTISRLEPEDFADYYCGQTYNYPLTFGQGTKLEI
Reply: 0.000527

Ask: Provide one value: measured koff of 4/94 murine VH / SEQ ID NO 209 (antibody, V domains shown) VH: EVQLQQSGAVLVKPGASVKLSCPASGFNIKDTYIHWVIQRPEQGLEWIGRIDPANGDTKCDPKFQVKATITADTSSNTAYLQLSSLTSEDTAVYFCVRDYLYPYYFDFWGQGTTLTVSS VL: KIVLTQSPGTLSLSPGERATLSCRASESVDTYVSWYQQKPGQAPRLLIYGASNRYTGIPDRFSGSGSGTDFTLTISRLEPEDFADYYCGQTYNYPLTFGQGTKLEI
Reply: 0.000177

Ask: Provide measured koff value, entry: 4/94 SEQ ID NO 200 / SEQ ID NO 209 (antibody, V domains shown) VH: EVQLVESGGGLVQPGGSLRLSCAASGFNIKDTYIHWVIQAPGKGLEWVGRIDPANGDTKSDPSVQVRATISADTSKNTAYLQMNSLRAEDTAVYYCVRDYLYPYYFDFWGQGTTVTVSS VL: KIVLTQSPGTLSLSPGERATLSCRASESVDTYVSWYQQKPGQAPRLLIYGASNRYTGIPDRFSGSGSGTDFTLTISRLEPEDFADYYCGQTYNYPLTFGQGTKLEI
Reply: 0.000326

Ask: Give the reported value of koff for this record: 4/94 SEQ ID NO 199 / SEQ ID NO 209 (antibody, V domains shown) VH: QVQLQESGPGLVKPSETLSLTCTVSGFNIKDTYIHWVIQRPGKGLEWIGRIDPANGDTKSDPSLQSRVTISADTSKNQASLKLSSVTAADTAVYYCVRDYLYPYYFDFWGQGTTVTVSS VL: KIVLTQSPGTLSLSPGERATLSCRASESVDTYVSWYQQKPGQAPRLLIYGASNRYTGIPDRFSGSGSGTDFTLTISRLEPEDFADYYCGQTYNYPLTFGQGTKLEI
Reply: 0.000552

Ask: State its koff for this binder: 4/94 SEQ ID NO 197 / SEQ ID NO 209 (antibody, V domains shown) VH: QVQLVQSGAEVKKPGSSVKVSCKASGFNIKDTYIHWVIQAPGQGLEWMGRIDPANGDTKSDPKFQGRVTITADESTSTAYMELSSLRSEDTAVYYCVRDYLYPYYFDFWGQGTTVTVSS VL: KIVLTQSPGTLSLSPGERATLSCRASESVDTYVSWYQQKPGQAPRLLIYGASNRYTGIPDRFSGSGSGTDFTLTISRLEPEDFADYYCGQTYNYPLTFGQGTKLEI
Reply: 0.000705
